Tested on: K98450-129-R-PDC multicell spheroids, viability
Test protocol: Anticancer human tumor K98450-129-R-PDC patient-derived colon adenocarcinoma cell line growth inhibition [PI3K]
Measurement parameters: second compound 0.0316 µM; first compound 0.01 µM; stronger effect = lower value
Reported endpoint: viability, T/C (%)
Give the value, in units of %, as a plain number.

Here's what some known entries look like.
>>> result_number("Cn1ncnc1[C@H]1c2n[nH]c(=O)c3cc(F)cc(c23)N[C@@H]1c1ccc(F)cc1 + CC(Nc1ncnc2nc[nH]c12)c1cc2cccc(Cl)c2c(=O)n1-c1ccccc1")
111
>>> result_number("Cn1ncnc1[C@H]1c2n[nH]c(=O)c3cc(F)cc(c23)N[C@@H]1c1ccc(F)cc1 + CC(Nc1ccc2c(c1)OCCn1cc(N3C(=O)OCC3C(F)F)nc1-2)C(N)=O")
100
>>> result_number("CC(=O)c1c(C)c2cnc(Nc3ccc(N4CCNCC4)cn3)nc2n(C2CCCC2)c1=O + CC(Nc1ncnc2nc[nH]c12)c1cc2cccc(Cl)c2c(=O)n1-c1ccccc1")
99

Consider the additional molecule presented here.
Annotate the molecule CCN1CCN(Cc2ccc(Nc3ncc(F)c(-c4cc(F)c5nc(C)n(C(C)C)c5c4)n3)nc2)CC1 + COc1c(OCCCN2CCOCC2)ccc2c3n(c(=NC(=O)c4cnc(N)nc4)nc12)CCN3 with its measured viability, T/C.
64.5

====

Test system: K98450-129-R-PDC multicell spheroids, viability
Test protocol: Anticancer human tumor K98450-129-R-PDC cell line growth inhibition [PI3K];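 further: spheroids exposed to agents for seven days before read-out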
Measurement parameters: second compound 0.1 µM; first compound 3.16 µM; stronger effect = lower value
Text: Combinatorial screen of targeted agents with the PI3K inhibitors inavolisib, alpelisib, duvelisib, and copanlisib in multi-cell type tumor spheroids A high-throughput screen of multi-cell type tumor spheroids was designed to identify active combinations of targeted small molecules and PI3K pathway inhibitors. […] Compounds. […] If the clinical Cmax for an agent had not been determined, the highest concentration tested was 10 microM. […]
Reported endpoint: viability, T/C (%)
Give the value, in units of %, as a plain number.

>>> result_number("CCCS(=O)(=O)Nc1ccc(F)c(C(=O)c2c[nH]c3ncc(-c4ccc(Cl)cc4)cc23)c1F + COc1c(OCCCN2CCOCC2)ccc2c3n(c(=NC(=O)c4cnc(N)nc4)nc12)CCN3")
61.7
>>> result_number("CC1(C)CCC(Nc2ncc(C(F)(F)F)c(-c3c[nH]c4c(P(C)(C)=O)c(C#N)ccc34)n2)CN1 (stereo unspecified) + CC(Nc1ccc2c(c1)OCCn1cc(N3C(=O)OCC3C(F)F)nc1-2)C(N)=O")
67.8
>>> result_number("C#Cc1c(F)ccc2cc(O)cc(-c3ncc4c(N5CC6CCC(C5)N6)nc(OCC56CCCN5CC(F)C6)nc4c3F)c12 (stereo unspecified) + CC(Nc1ccc2c(c1)OCCn1cc(N3C(=O)OCC3C(F)F)nc1-2)C(N)=O")
97.5

Annotate the molecule CNC(=O)c1ccc(N2C(=S)N(c3ccc(C#N)c(C(F)(F)F)c3)C(=O)C2(C)C)cc1F + CC(Nc1ncnc2nc[nH]c12)c1cc2cccc(Cl)c2c(=O)n1-c1ccccc1 with its measured viability, T/C.
88.8

Annotate the molecule Cn1ncc(Cl)c1-c1cc(C(=O)NC(CN)Cc2cccc(F)c2)sc1Cl (stereo unspecified) + CC(Nc1ccc2c(c1)OCCn1cc(N3C(=O)OCC3C(F)F)nc1-2)C(N)=O with its measured viability, T/C.
97.1

====

System: K98450-129-R-PDC multicell spheroids, viability
Test protocol: Anticancer human tumor K98450-129-R-PDC cell line growth inhibition [PI3K];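 further: spheroids exposed to agents for seven days before read-out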
Measurement parameters: second compound 1 µM; first compound 0.0316 µM; stronger effect = lower value
Field: label. Allowed values: Yes (viability, T/C < 90%) or No (viability, T/C >= 90%).

Dear reviewer, please state whether CC1(C)CCC(CN2CCN(c3ccc(C(=O)NS(=O)(=O)c4ccc(NCC5CCOCC5)c([N+](=O)[O-])c4)c(Oc4cnc5[nH]ccc5c4)c3)CC2)=C(c2ccc(Cl)cc2)C1 + CC(Nc1ccc2c(c1)OCCn1cc(N3C(=O)OCC3C(F)F)nc1-2)C(N)=O has viability, T/C strictly beneath 90%.
Yes

Dear reviewer, please state whether Cn1ncc(Cl)c1-c1cc(C(=O)NC(CN)Cc2cccc(F)c2)sc1Cl (stereo not given) + COc1c(OCCCN2CCOCC2)ccc2c3n(c(=NC(=O)c4cnc(N)nc4)nc12)CCN3 has viability, T/C strictly beneath 90%.
Yes

Dear reviewer, please state whether CC(C)NCC(C(=O)N1CCN(c2ncnc3c2C(C)CC3O)CC1)c1ccc(Cl)cc1 (stereo not given) + COc1c(OCCCN2CCOCC2)ccc2c3n(c(=NC(=O)c4cnc(N)nc4)nc12)CCN3 has viability, T/C strictly beneath 90%.
Yes

Dear reviewer, please state whether C[C@@H](NC(=O)c1ncnc(N)c1Cl)c1ncc(C(=O)Nc2cc(C(F)(F)F)c(Cl)cn2)s1 + CC(Nc1ncnc2nc[nH]c12)c1cc2cccc(Cl)c2c(=O)n1-c1ccccc1 has viability, T/C strictly beneath 90%.
No

Dear reviewer, please state whether Cn1nccc1Nc1nccc(-c2ccn(C(CO)c3ccc(Cl)c(F)c3)c(=O)c2)n1 (stereo not given) + CC(Nc1ccc2c(c1)OCCn1cc(N3C(=O)OCC3C(F)F)nc1-2)C(N)=O has viability, T/C strictly beneath 90%.
Yes

====

Reported viability, T/C values are given for each entry in this list.
System: K98450-129-R-PDC multicell spheroids, viability
Test protocol: Anticancer human tumor K98450-129-R-PDC cell line growth inhibition [PI3K];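 further: spheroids exposed to agents for seven days before read-out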
Measurement parameters: second compound 0.01 µM; first compound 10 µM; stronger effect = lower value
Give the value, in units of %, as a plain number.

>>> result_number("C=CC(=O)N1CCN(c2nc(=O)n(-c3c(C)ccnc3C(C)C)c3nc(-c4c(O)cccc4F)c(F)cc23)C(C)C1 (stereo not drawn) + CC(Nc1ccc2c(c1)OCCn1cc(N3C(=O)OCC3C(F)F)nc1-2)C(N)=O")
28.9
>>> result_number("Cn1nccc1Nc1nccc(-c2ccn(C(CO)c3ccc(Cl)c(F)c3)c(=O)c2)n1 (stereo not drawn) + COc1c(OCCCN2CCOCC2)ccc2c3n(c(=NC(=O)c4cnc(N)nc4)nc12)CCN3")
95.5

Consider the additional compound presented here.
Annotate the compound C#Cc1c(F)ccc2cc(O)cc(-c3ncc4c(N5CC6CCC(C5)N6)nc(OCC56CCCN5CC(F)C6)nc4c3F)c12 (stereo not drawn) + COc1c(OCCCN2CCOCC2)ccc2c3n(c(=NC(=O)c4cnc(N)nc4)nc12)CCN3 with its measured viability, T/C.
79.5

====

System: K98450-129-R-PDC multicell spheroids, viability
Test protocol: Anticancer human tumor K98450-129-R-PDC cell line growth inhibition [PI3K];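 further: spheroids exposed to agents for seven days before read-out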
Measurement parameters: compound 3.16 µM; stronger effect = lower value
Reported endpoint: viability, T/C

Here's what some known entries look like.
>>> result("Cc1nc(NC(=O)N2CCCC2C(N)=O)sc1-c1ccnc(C(C)(C)C(F)(F)F)c1 (stereo unspecified)")
"93.5% [middle of 8 runs]"
>>> result("CC(Nc1ncnc2nc[nH]c12)c1cc2cccc(Cl)c2c(=O)n1-c1ccccc1 (stereo unspecified)")
"105% [middle of 8 runs]"
>>> result("C=CC(=O)N1CCN(c2nc(=O)n(-c3c(C)ccnc3C(C)C)c3nc(-c4c(O)cccc4F)c(F)cc23)C(C)C1 (stereo unspecified)")
"56% [middle of 4 runs]"
>>> result("Cn1nccc1Nc1nccc(-c2ccn(C(CO)c3ccc(Cl)c(F)c3)c(=O)c2)n1 (stereo unspecified)")
"100% [middle of 4 runs]"
>>> result("CNC(=O)c1ccc(N2C(=S)N(c3ccc(C#N)c(C(F)(F)F)c3)C(=O)C2(C)C)cc1F")
"107% [middle of 4 runs]"

Give viability, T/C for this entry on K98450-129-R-PDC multicell spheroids, viability: `C[C@@H](NC(=O)c1ncnc(N)c1Cl)c1ncc(C(=O)Nc2cc(C(F)(F)F)c(Cl)cn2)s1`
120% [middle of 4 runs]

====

Reported pIC50 values are given for each entry in this list.
Tested on: K98450-129-R-PDC multicell spheroids, viability
Test protocol: Anticancer human tumor K98450-129-R-PDC cell line growth inhibition [PI3K];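 further: spheroids exposed to agents for seven days before read-out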
Measurement parameters: curve of first compound; second compound 1 µM
Text: Combinatorial screen of targeted agents with the PI3K inhibitors inavolisib, alpelisib, duvelisib, and copanlisib in multi-cell type tumor spheroids A high-throughput screen of multi-cell type tumor spheroids was designed to identify active combinations of targeted small molecules and PI3K pathway inhibitors. […] Compounds. […] If the clinical Cmax for an agent had not been determined, the highest concentration tested was 10 microM. […]
pIC50: −log10 of the molar value.

>>> result("CC1(C)CCC(Nc2ncc(C(F)(F)F)c(-c3c[nH]c4c(P(C)(C)=O)c(C#N)ccc34)n2)CN1 (stereo not drawn) + Cc1nc(NC(=O)N2CCCC2C(N)=O)sc1-c1ccnc(C(C)(C)C(F)(F)F)c1")
"< 5.00"

Annotate the compound Cn1ncc(Cl)c1-c1cc(C(=O)NC(CN)Cc2cccc(F)c2)sc1Cl (stereo not drawn) + CC(Nc1ccc2c(c1)OCCn1cc(N3C(=O)OCC3C(F)F)nc1-2)C(N)=O with its measured pIC50.
< 5.00

Annotate the compound CC1(C)CCC(Nc2ncc(C(F)(F)F)c(-c3c[nH]c4c(P(C)(C)=O)c(C#N)ccc34)n2)CN1 (stereo not drawn) + CC(Nc1ccc2c(c1)OCCn1cc(N3C(=O)OCC3C(F)F)nc1-2)C(N)=O with its measured pIC50.
< 5.00
